Test system: Plasmodium falciparum
Test: NOVARTIS: Inhibition of Plasmodium falciparum W2 (drug-resistant) proliferation in erythrocyte-based infection assay
Assay type: functional, organism-based
Settings: Plasmodium falciparum, W2; read-out: EC50
Categorize each record by its EC50 using bin A = under 200 nM, bin B = from 200 nM up to 600 nM, bin C = 600 nM and over

Some entries whose results are on file:
{"compound": "CSc1oc(-c2ccccc2)nc1C(N)=O", "target system": "Plasmodium falciparum", "group label": "bin C"}
{"compound": "CC[n+]1c(/C=C/c2ccc(OC)cc2)ccc2ccccc21", "target system": "Plasmodium falciparum", "group label": "bin A"}
{"compound": "O=[N+]([O-])c1ccc(N2CCN(c3nc(NCCc4c[nH]c5ccccc45)c4ccccc4n3)CC2)cc1", "target system": "Plasmodium falciparum", "group label": "bin C"}
{"compound": "COc1cc([C@@H]2OC[C@@H]3[C@H]2CO[C@H]3c2cc(OC)c(O[C@@H]3O[C@H](CO)[C@@H](O)[C@H](O)[C@H]3O)c(OC)c2)cc(OC)c1O [ACANTHOSIDE B]", "target system": "Plasmodium falciparum", "group label": "bin B"}

-- ask Classify this compound: OCCC1CN(Cc2cccc(Cl)c2)CCN1Cc1ccccc1 (stereo unspecified)
-- reply bin C

-- ask The entry to classify is CCCCCc1ccc(C(=O)NCCCCNc2ccnc3cc(Cl)ccc23)cc1 ; which class holds it?
-- reply bin B

-- ask For NC(=O)CSc1nnc2ccc(-c3ccc4c(c3)OCO4)nn12 , which EC50 bin applies?
-- reply bin C

-- ask Into which category would you place CCOC(=O)C1(CC)CC(C)(C(=O)C[n+]2cccc(Br)c2)OC1=O (stereo unspecified) ?
-- reply bin C

-- ask Given COc1cccc2c1OCC(CN1CCC(C(=O)Nc3ccc(-n4cccn4)cc3)CC1)=C2 , name the class its EC50 places it in.
-- reply bin C

---

Tested on: Plasmodium falciparum
Assay: NOVARTIS: Inhibition of Plasmodium falciparum 3D7 (drug-susceptible) proliferation in erythrocyte-based infection assay
Assay type: functional, organism-based
Conditions: Plasmodium falciparum, 3D7
measured quantity: log10 of EC50 (log10 of the value in nM)
Log10 applied to EC50; unit prior to transform: nM.

Here's what some known entries look like.
{"molecule": "CC(C)(C[N+](C)(C)C)C1OC2CCCCC2C2C=CCCC21 (stereo not drawn)", "log10 of EC50": 3.00}
{"molecule": "COc1ccc(S(=O)(=O)N2CCN(C(=S)NC3CCCCC3)CC2)cc1", "log10 of EC50": 3.93}
{"molecule": "COc1cccc(-c2nc(CS(=O)(=O)CC(=O)N3CC(C)CC(C)C3)c(C)o2)c1 (stereo not drawn)", "log10 of EC50": 2.13}
{"molecule": "CCCCCCN(C(=O)CCc1ccccc1)C(CC)c1nc2ccccc2c(=O)n1-c1ccc(Cl)cc1 (stereo not drawn)", "log10 of EC50": 3.06}
{"molecule": "CCCN(CCC)S(=O)(=O)c1cc(Br)cc2c1N(C(=O)C1CC1)CC2", "log10 of EC50": 2.61}

Recorded log10 of EC50 (molecule O=C(NC(c1ccccc1)c1ccccc1)N(Cc1ccccc1)CC(O)CN(CCN1CCOCC1)S(=O)(=O)Cc1ccccc1 (stereo not drawn) ): 2.06

Entry COc1ccc2ccc(OC)c(C3C(C#N)=C(N)OC4=C3C(=O)CC(C)(C)C4)c2c1 (stereo not drawn) ; log10 of EC50 = 3.16

log10 of EC50 measured on COC(=O)[C@@H]1C[C@@H](NC(=O)c2ccc(OC)cc2OC)CN1Cc1cccc2ccccc12 = 3.67

Recorded result, CC1CC(C)(C)NC(=S)N1CCC(=O)NCCc1ccccc1 (stereo not drawn) , log10 of EC50: 3.00

Lab note: O=C(NCCC(c1ccccc1)c1ccccc1)c1cccc([N+](=O)[O-])c1 gave log10 of EC50 of 2.48

---

Test: NOVARTIS: Cytotoxicity against human hepatocellular carcinoma cell line (Huh7)
Assay type: toxicity, cell-based, Huh-7
Details: Huh7 cells (hepatocellular carcinoma cell line)
measured quantity: CC50

{"compound": "CN(Cc1cc(-c2ccc(F)cc2)ccc1O)CC(O)c1ccccc1 (stereo not given)", "CC50": "> 70.9 µM"}

Entry CCCCCCCCn1c(C)[n+](CC)c2cc(C(=O)OCC)ccc21 ; CC50 = > 100 µM

Reported CC50 of Cc1nc(-c2ccccc2)nc(C(=O)N2CCN(C(=O)/C=C/c3ccccc3)C(C)C2)c1C(=O)OC(C)C (stereo not given) : > 10 µM

// field: CC50; key: O=C(Nc1ccc(-c2nc3ccc(NC(=O)c4ccc(Br)cc4)cc3[nH]2)cc1)c1ccc(Br)cc1 ; value = 4.19 µM

The reported CC50 of the compound OC(CNc1cccc2ccccc12)Cn1c2ccccc2c2ccccc21 (stereo not given) was 14.9 µM

Notebook: COc1ccc(C2=C(Nc3ccc(C)c(C)c3)c3ccccc3C2=O)cc1 , CC50 read as > 100 µM

The recorded CC50 for CCN1CCN(Cc2c(O)ccc3c(=O)c(Oc4ccccc4Br)c(C(F)(F)F)oc23)CC1 is > 100 µM

Documented CC50 of COc1cccc(N2CCN(CCNCCOc3ccccc3)[C@@H](Cc3ccccc3)C2)c1 : > 7.31 µM

// CC50 lookup, compound = CC(C)c1ccc(NC(=O)/C=C/c2ccccc2Cl)cc1 , result: > 10 µM

Looking up O=C(NCc1ccccc1)NC1CC2CCCC(C1)N2Cc1ccccc1 (stereo not given) , I see its CC50 listed as > 10 µM

---

Test system: Plasmodium falciparum
Experiment: NOVARTIS: Inhibition of Plasmodium falciparum W2 (drug-resistant) proliferation in erythrocyte-based infection assay
Assay type: functional, organism-based
Conditions: Plasmodium falciparum, W2; read-out: EC50
In this section, each of the molecules is paired with its reported pEC50.
Please keep in mind that pEC50 is minus log10 of the molar concentration; only the number is needed.

Example entries begin here.
{"molecule": "C[n+]1c(/C=C/c2ccc(Cl)c(Cl)c2)ccc2ccccc21", "measured quantity": "pEC50", "experimental value": 6.41}
{"molecule": "O=C(Cc1cccs1)N1CCC(n2c(Cc3ccc(F)cc3)nc3cccnc32)CC1", "measured quantity": "pEC50", "experimental value": 6.08}
{"molecule": "O=C(Cc1ccsc1)N1CCOc2c(cc(-c3csc4ccccc34)cc2OCCc2ccccn2)C1", "measured quantity": "pEC50", "experimental value": 6.65}
{"molecule": "Cc1ccc(C2Sc3ccccc3NC3=C2C(=O)c2ccccc23)cc1 (stereo unspecified)", "measured quantity": "pEC50", "experimental value": 7.33}

COc1cccc(C(=O)Oc2ccccc2-c2nc3ccccn3c2NC(C)(C)CC(C)(C)C)c1 has a reported pEC50 of 7.48

Entry CCCCN(CC(=O)Nc1cc(C(C)(C)C)nn1-c1ccc(Cl)cc1)C(=O)c1ccc(OC)cc1 — recorded pEC50 = 7.28

The reported pEC50 of the molecule FC(F)(F)c1cccc(CNC2CCN(CCc3ccccc3)CC2)c1 was 6.31

---

Catalogue of CC50 values
Experiment: NOVARTIS: Cytotoxicity against human hepatocellular carcinoma cell line (Huh7)
Type: toxicity, cell-based, Huh-7
Conditions: Huh7 cells (hepatocellular carcinoma cell line)

Answered examples (5):
{"compound": "CC1(CNCc2ccccc2O)C2CC3CC(C2)CC1C3 (stereo not given)", "CC50": "> 10 µM"}
{"compound": "O=C(Nc1ccccc1C(=O)O)c1cccc(NC(=O)c2ccco2)c1", "CC50": "> 10 µM"}
{"compound": "Oc1ccc(Cl)cc1C1CC(c2ccc(Cl)cc2)=NC(c2ccc(Cl)cc2)N1 (stereo not given)", "CC50": "34.7 µM"}
{"compound": "CC(C)CNC(=O)c1cnc(NCCCN)nc1NC1CCCC1", "CC50": "> 10 µM"}
{"compound": "C[n+]1cccc2ccc3cccnc3c21", "CC50": "> 8.03 µM"}

Value of measured CC50 for the entry CC[n+]1c(C=C2C=CN(c3ccc(Cl)cc3)C=C2)ccc2ccccc21 : > 10 µM

---

Assay: NOVARTIS: Cytotoxicity against human hepatocellular carcinoma cell line (Huh7)
Assay type: toxicity, cell-based, Huh-7
Settings: Huh7 cells (hepatocellular carcinoma cell line)
measured quantity: CC50

{"compound": "O=C(O)CS(=O)(=O)c1ccc(C(=O)NCC(c2cccnc2)N2CCOCC2)cn1 (configuration not stated)", "experimental value": "> 10 µM"}

The reported CC50 of the compound Fc1cccc2sc(Nc3nc(-c4ccccn4)cs3)nc12 was 24.7 µM

Per the records, this compound ( C=CCNC(=O)c1cc(OCc2ccccc2)c(OCc2ccccc2)c(OCc2ccccc2)c1 ) has CC50 equal to > 100 µM

---

Test system: Plasmodium falciparum
Experiment: NOVARTIS: Inhibition of Plasmodium falciparum 3D7 (drug-susceptible) proliferation in erythrocyte-based infection assay
Format: functional, organism-based
Conditions: Plasmodium falciparum, 3D7
Bucketed by reported EC50, buckets being LOW: < 400 nM; MID: ≥ 400 nM and < 1000 nM; HIGH: ≥ 1000 nM

Recorded results for 2 compounds are shown here.
{"compound": "CC12CN3CC(C)(CN(C1)C3c1ccccc1)C2=O (configuration not stated)", "group label": "HIGH"}
{"compound": "O=C(Nc1ccc(-c2nc3cc(NC(=O)C(c4ccccc4)c4ccccc4)ccc3[nH]2)cc1)C(c1ccccc1)c1ccccc1", "group label": "HIGH"}

-- ask Assign a bin to Cc1cc(Nc2ccc(Br)cc2)n2nc(C)nc2n1
-- reply MID

-- ask Classify this compound: CC(CN1CCC(n2cc(C(=O)N3CCCC3)nn2)CC1)c1ccccc1 (configuration not stated)
-- reply HIGH

-- ask Assign a bin to O=C(c1ccc([N+](=O)[O-])cc1[N+](=O)[O-])N1CCCCC1
-- reply HIGH

-- ask Form field 'band' for CCN(CC)c1ccc(N=Cc2ccccc2[N+](=O)[O-])cc1
-- reply MID

-- ask State the class of the compound shown: COC(=O)c1c(OCc2ccc(F)cc2)cc(=O)n2c1CCN(Cc1ccccc1)CC2
-- reply HIGH

-- ask For the record O=C(NC1CCN(CC(O)CN(Cc2ccccc2)S(=O)(=O)c2ccccc2)C1)C1CCCCC1 (configuration not stated) , report the class its EC50 corresponds to.
-- reply LOW

-- ask Could you tell me which band CCCCN1C(=Cc2cccc[n+]2C)Sc2cc(NC(C)=O)ccc21 belongs to?
-- reply HIGH
